# Substrate: FN matrix (fibronectin fibrils) assembled by NIH 3T3 fibroblasts (UniProt P11276)
# Sequence (P11276 33-2477 limits assumed): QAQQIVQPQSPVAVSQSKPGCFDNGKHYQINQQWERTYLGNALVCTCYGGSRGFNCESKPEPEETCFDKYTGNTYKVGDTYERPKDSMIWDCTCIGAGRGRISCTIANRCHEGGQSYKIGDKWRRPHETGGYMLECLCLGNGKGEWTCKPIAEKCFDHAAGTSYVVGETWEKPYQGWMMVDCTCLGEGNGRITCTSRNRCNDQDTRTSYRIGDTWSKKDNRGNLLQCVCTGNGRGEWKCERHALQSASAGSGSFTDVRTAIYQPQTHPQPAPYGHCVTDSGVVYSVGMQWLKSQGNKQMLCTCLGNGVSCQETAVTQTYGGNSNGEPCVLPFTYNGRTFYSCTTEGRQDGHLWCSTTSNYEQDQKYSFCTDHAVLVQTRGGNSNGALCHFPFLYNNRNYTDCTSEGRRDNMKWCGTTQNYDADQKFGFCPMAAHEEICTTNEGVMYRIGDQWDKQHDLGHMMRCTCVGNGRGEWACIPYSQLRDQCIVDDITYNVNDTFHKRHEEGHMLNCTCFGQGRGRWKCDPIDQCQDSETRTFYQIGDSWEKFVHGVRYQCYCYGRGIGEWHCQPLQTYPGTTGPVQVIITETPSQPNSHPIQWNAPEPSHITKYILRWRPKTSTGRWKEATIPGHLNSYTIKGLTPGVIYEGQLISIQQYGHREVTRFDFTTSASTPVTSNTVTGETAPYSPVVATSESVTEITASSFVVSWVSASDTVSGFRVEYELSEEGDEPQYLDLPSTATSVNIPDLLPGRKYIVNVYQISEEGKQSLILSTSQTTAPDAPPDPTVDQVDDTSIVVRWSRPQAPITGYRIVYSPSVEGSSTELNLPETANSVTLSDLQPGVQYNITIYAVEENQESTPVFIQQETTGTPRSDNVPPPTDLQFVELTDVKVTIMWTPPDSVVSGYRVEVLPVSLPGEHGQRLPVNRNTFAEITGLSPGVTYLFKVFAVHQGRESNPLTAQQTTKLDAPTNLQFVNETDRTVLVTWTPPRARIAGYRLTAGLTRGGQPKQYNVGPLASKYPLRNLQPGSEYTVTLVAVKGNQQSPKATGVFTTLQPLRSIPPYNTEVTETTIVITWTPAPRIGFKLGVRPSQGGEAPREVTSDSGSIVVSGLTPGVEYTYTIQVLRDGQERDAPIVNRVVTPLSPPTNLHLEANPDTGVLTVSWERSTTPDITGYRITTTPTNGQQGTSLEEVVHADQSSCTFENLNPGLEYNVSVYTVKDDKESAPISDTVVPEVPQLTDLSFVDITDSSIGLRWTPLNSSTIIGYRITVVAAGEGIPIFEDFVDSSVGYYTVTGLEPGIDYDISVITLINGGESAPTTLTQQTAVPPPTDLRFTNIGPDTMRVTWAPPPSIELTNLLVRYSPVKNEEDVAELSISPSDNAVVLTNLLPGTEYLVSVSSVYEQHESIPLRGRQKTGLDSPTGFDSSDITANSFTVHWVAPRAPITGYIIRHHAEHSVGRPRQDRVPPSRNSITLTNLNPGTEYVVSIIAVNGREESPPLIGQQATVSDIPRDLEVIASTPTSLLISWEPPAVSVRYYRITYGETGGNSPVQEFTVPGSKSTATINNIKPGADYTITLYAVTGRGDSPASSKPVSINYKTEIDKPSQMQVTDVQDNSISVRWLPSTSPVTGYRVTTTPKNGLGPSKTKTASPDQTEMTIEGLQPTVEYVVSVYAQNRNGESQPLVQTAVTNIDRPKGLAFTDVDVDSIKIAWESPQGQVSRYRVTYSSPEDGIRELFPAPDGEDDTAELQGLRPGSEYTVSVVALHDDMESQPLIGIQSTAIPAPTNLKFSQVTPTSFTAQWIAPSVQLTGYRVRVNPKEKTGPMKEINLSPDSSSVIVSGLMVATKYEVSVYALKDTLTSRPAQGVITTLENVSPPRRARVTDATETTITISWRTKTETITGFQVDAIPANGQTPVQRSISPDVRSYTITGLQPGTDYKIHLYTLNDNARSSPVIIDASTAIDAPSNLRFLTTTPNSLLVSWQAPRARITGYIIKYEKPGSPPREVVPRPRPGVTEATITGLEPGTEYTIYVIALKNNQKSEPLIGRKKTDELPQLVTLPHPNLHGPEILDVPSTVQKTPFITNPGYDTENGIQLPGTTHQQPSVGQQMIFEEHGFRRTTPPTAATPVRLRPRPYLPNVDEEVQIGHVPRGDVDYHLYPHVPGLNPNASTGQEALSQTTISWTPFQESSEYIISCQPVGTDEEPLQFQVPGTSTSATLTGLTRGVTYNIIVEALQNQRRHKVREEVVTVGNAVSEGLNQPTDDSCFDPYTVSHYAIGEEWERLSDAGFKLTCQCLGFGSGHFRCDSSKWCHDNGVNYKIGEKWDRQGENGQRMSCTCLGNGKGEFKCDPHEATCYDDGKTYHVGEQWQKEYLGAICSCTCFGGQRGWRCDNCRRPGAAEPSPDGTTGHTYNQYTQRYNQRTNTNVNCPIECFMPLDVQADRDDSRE
# Test protocol: phage incubated with fibroblasts assembling matrix; overlap of phage fluorescence with FN stain
Where no end group is shown, it is not given here.

{"columns": ["Binder", "Manders' Coefficient"],
 "data": [
  ["SITEFNLLPGLW (peptide, not shown: large carriers, not fully specified) [M13 phage clone 6 (6, 35) displaying …]", 0.606],
  ["SDITPWWLLAQD (peptide, not shown: large carriers, not fully specified) [M13 phage clone 20 (20, 21, 46) displaying … (S20)]", 0.552],
  ["NHVALWGTGTAS (peptide, not shown: large carriers, not fully specified) [M13 phage clone 3 (3, 5, 27, 28) displaying … (S3)]", 0.527],
  ["WHVALTGNNLER (peptide, not shown: large carriers, not fully specified) [M13 phage clone 37 displaying …]", 0.698],
  ["YVTNWGSLSGSY (peptide, not shown: large carriers, not fully specified) [M13 phage clone 23 displaying …]", 0.675],
  ["AHXRLSGSAPMF-{pIII (M13 phage)} (peptide, not shown: large carriers, not fully specified) [M13 phage clone 7 (7, 22, 38) displaying AHB…]", 0.39],
  ["VSGYNVMPLNGD (peptide, not shown: large carriers, not fully specified) [M13 phage clone 1 displaying …]", 0.253],
  ["DHVSLSGRSAAM (peptide, not shown: large carriers, not fully specified) [M13 phage clone 11 displaying …]", 0.173],
  ["HNQTMWWTFPST (peptide, not shown: large carriers, not fully specified) [M13 phage clone 4 (4, 44) displaying …]", 0.47],
  ["IAYPTDMSLSYK (peptide, not shown: large carriers, not fully specified) [M13 phage clone 33 displaying …]", 0.56],
  ["DHIPLRGQRVWQ (peptide, not shown: large carriers, not fully specified) [M13 phage clone 19 (19, 24, 32, 41, 45) displaying …]", 0.397],
  ["HWSGTHALSGRA (peptide, not shown: large carriers, not fully specified) [M13 phage clone 9 (9, 42) displaying …]", 0.588]
]}

From: patent US20250060359A1
